# System: MDCK
# assay.info: Cytotoxicity against Influenza B virus infected MDCK cells by trypan blue exclusion method
# Format: cell-based, Canis lupus familiaris
# reported.conditions: dog
In this section we review reported CC50 values for a set of compounds.

COc1cc(/C=C/C(=O)CC(=O)/C=C/c2ccc(OC(=O)[C@H](Cc3ccccc3)NC(=O)[C@@H](N)Cc3c[nH]c4ccccc34)c(OC)c2)ccc1OC(=O)[C@H](Cc1ccccc1)NC(=O)[C@@H](N)Cc1c[nH]c2ccccc12 | 0.046 µM
COc1cc(/C=C/C(=O)CC(=O)/C=C/c2ccc(OCCOC(=O)CCC(NC(=O)c3ccc(NCc4cnc5nc(N)[nH]c(=O)c5n4)cc3)C(=O)O)c(OC)c2)ccc1O (stereo not given) | > 0.119 µM
COc1cc(/C=C/C(=O)CC(=O)/C=C/c2ccc(OC(=O)CCC(NC(=O)c3ccc(NCc4cnc5nc(N)[nH]c(=O)c5n4)cc3)C(=O)O)c(OC)c2)ccc1OC(=O)CCC(NC(=O)c1ccc(NCc2cnc3nc(N)[nH]c(=O)c3n2)cc1)C(=O)O (stereo not given) | 0.082 µM
COc1cc(/C=C/C(=O)C(CCOC(=O)CCC(NC(=O)c2ccc(NCc3cnc4nc(N)[nH]c(=O)c4n3)cc2)C(=O)O)C(=O)/C=C/c2ccc(O)c(OC)c2)ccc1O (stereo not given) | > 0.011 µM

CC50 in this record for COc1cc(/C=C/C(=O)CC(=O)/C=C/c2ccc(O)c(OC)c2)ccc1O : > 0.092 µM

====

# assay.info: Cytotoxicity against Respiratory syncytial virus infected human HeLa cells by trypan blue exclusion method
# Format: cell-based
# reported.conditions: HeLa cells infected with respiratory syncytial virus
observed.property: CC50

Per the record, NC(=O)c1ncn([C@@H]2O[C@H](CO)[C@@H](O)[C@H]2O)n1 has CC50 of > 250 µM

====

# System: Vero
# assay.info: Cytotoxicity against Sindbis virus infected african green monkey Vero cells by trypan blue exclusion method
# Format: cell-based
# reported.conditions: chlorocebus sabaeus, vero
observed.property: CC50

Worked examples follow.
COc1cc(/C=C/C(=O)CC(=O)/C=C/c2ccc(OC(=O)[C@H](Cc3ccccc3)NC(=O)[C@@H](N)Cc3c[nH]c4ccccc34)c(OC)c2)ccc1OC(=O)[C@H](Cc1ccccc1)NC(=O)[C@@H](N)Cc1c[nH]c2ccccc12 | 96 nM
COc1cc(/C=C/C(=O)CC(=O)/C=C/c2ccc(OCCOC(=O)CCC(NC(=O)c3ccc(NCc4cnc5nc(N)[nH]c(=O)c5n4)cc3)C(=O)O)c(OC)c2)ccc1O (stereo unspecified) | > 119 nM
COc1cc(/C=C/C(=O)CC(=O)/C=C/c2ccc(O)c(OC)c2)ccc1O | 54 nM
COc1cc(/C=C/C(=O)C(CCOC(=O)CCC(NC(=O)c2ccc(NCc3cnc4nc(N)[nH]c(=O)c4n3)cc2)C(=O)O)C(=O)/C=C/c2ccc(O)c(OC)c2)ccc1O (stereo unspecified) | > 11 nM
COc1cc(/C=C/C(=O)CC(=O)/C=C/c2ccc(OC(=O)CCC(NC(=O)c3ccc(NCc4cnc5nc(N)[nH]c(=O)c5n4)cc3)C(=O)O)c(OC)c2)ccc1OC(=O)CCC(NC(=O)c1ccc(NCc2cnc3nc(N)[nH]c(=O)c3n2)cc1)C(=O)O (stereo unspecified) | > 82 nM

Now for another entry.
The value of CC50 recorded for Nc1ncnc2c1ncn2C[C@H](O)CO [(S)-DHPA] when tested on Vero reads > 250000 nM

====

# Tested on: HeLa
# assay.info: Cytotoxicity against Respiratory syncytial virus infected human HeLa cells by trypan blue exclusion method
# Assay type: cell-based
# reported.conditions: hela
observed.property: CC50

The measured CC50 associated with COc1cc(/C=C/C(=O)CC(=O)/C=C/c2ccc(OC(=O)[C@H](Cc3ccccc3)NC(=O)[C@@H](N)Cc3c[nH]c4ccccc34)c(OC)c2)ccc1OC(=O)[C@H](Cc1ccccc1)NC(=O)[C@@H](N)Cc1c[nH]c2ccccc12 reads 96 nM

Per the record, COc1cc(/C=C/C(=O)CC(=O)/C=C/c2ccc(O)c(OC)c2)ccc1O [CURCUMIN] has CC50 of ≥ 10 nM

Given item COc1cc(/C=C/C(=O)CC(=O)/C=C/c2ccc(OCCOC(=O)CCC(NC(=O)c3ccc(NCc4cnc5nc(N)[nH]c(=O)c5n4)cc3)C(=O)O)c(OC)c2)ccc1O (stereo not drawn) , the value recorded as its CC50 is > 119 nM

====

# System: HEL
# assay.info: Cytotoxicity against Herpes simplex virus 1 KOS infected HEL cells by trypan blue exclusion method
# Type: cell-based
# reported.conditions: human, hel
molecules and their reported CC50

Example cases with answers are listed next.
COc1cc(/C=C/C(=O)CC(=O)/C=C/c2ccc(OCCOC(=O)CCC(NC(=O)c3ccc(NCc4cnc5nc(N)[nH]c(=O)c5n4)cc3)C(=O)O)c(OC)c2)ccc1O (centres undefined) | > 119 nM
COc1cc(/C=C/C(=O)C(CCOC(=O)CCC(NC(=O)c2ccc(NCc3cnc4nc(N)[nH]c(=O)c4n3)cc2)C(=O)O)C(=O)/C=C/c2ccc(O)c(OC)c2)ccc1O (centres undefined) | > 11 nM
COc1cc(/C=C/C(=O)CC(=O)/C=C/c2ccc(O)c(OC)c2)ccc1O [CURCUMIN] | ≥ 10 nM

Let us examine a further case.
// recorded CC50 for O=c1[nH]c(=O)n([C@H]2C[C@H](O)[C@@H](CO)O2)cc1/C=C/Br [BRIVUDINE] : > 250000 nM

====

Overview of reported pEC50 across a group of compounds:
# Test system: Coxsackievirus B4
# assay.info: Antiviral activity against Human coxsackievirus B4 infected in human HeLa cells assessed as protection from virus-induced cytopathogenicity after 2 days by MTT assay
# Type: functional, organism-based
# reported.conditions: Enterovirus B, 48 h
pEC50: −log10 of the molar value.

COc1cc(/C=C/C(=O)CC(=O)/C=C/c2ccc(OCCOC(=O)CCC(NC(=O)c3ccc(NCc4cnc5nc(N)[nH]c(=O)c5n4)cc3)C(=O)O)c(OC)c2)ccc1O (stereo unspecified) | < 6.92

Field pEC50 (entry COc1cc(/C=C/C(=O)CC(=O)/C=C/c2ccc(O)c(OC)c2)ccc1O ) reads < 8.00

The measured pEC50 associated with COc1cc(/C=C/C(=O)C(CCOC(=O)CCC(NC(=O)c2ccc(NCc3cnc4nc(N)[nH]c(=O)c4n3)cc2)C(=O)O)C(=O)/C=C/c2ccc(O)c(OC)c2)ccc1O (stereo unspecified) reads < 7.96

pEC50 reported for this compound COc1cc(/C=C/C(=O)CC(=O)/C=C/c2ccc(OC(=O)[C@H](Cc3ccccc3)NC(=O)[C@@H](N)Cc3c[nH]c4ccccc34)c(OC)c2)ccc1OC(=O)[C@H](Cc1ccccc1)NC(=O)[C@@H](N)Cc1c[nH]c2ccccc12 : < 7.72

What the record says about NC(=O)c1ncn([C@@H]2O[C@H](CO)[C@@H](O)[C@H]2O)n1 : pEC50 is 4.52

// pEC50 lookup, compound = COc1cc(/C=C/C(=O)CC(=O)/C=C/c2ccc(OC(=O)CCC(NC(=O)c3ccc(NCc4cnc5nc(N)[nH]c(=O)c5n4)cc3)C(=O)O)c(OC)c2)ccc1OC(=O)CCC(NC(=O)c1ccc(NCc2cnc3nc(N)[nH]c(=O)c3n2)cc1)C(=O)O (stereo unspecified) , result: < 7.09

====

# Test system: HEL
# assay.info: Cytotoxicity against Herpes simplex virus 2 G infected HEL cells by trypan blue exclusion method
# Assay type: cell-based
# reported.conditions: human, hel
observed.property: CC50

Example cases with answers are listed next.
COc1cc(/C=C/C(=O)C(CCOC(=O)CCC(NC(=O)c2ccc(NCc3cnc4nc(N)[nH]c(=O)c4n3)cc2)C(=O)O)C(=O)/C=C/c2ccc(O)c(OC)c2)ccc1O (stereo unspecified) | > 0.011 µM
O=c1[nH]c(=O)n([C@H]2C[C@H](O)[C@@H](CO)O2)cc1/C=C/Br | > 250 µM
COc1cc(/C=C/C(=O)CC(=O)/C=C/c2ccc(OC(=O)[C@H](Cc3ccccc3)NC(=O)[C@@H](N)Cc3c[nH]c4ccccc34)c(OC)c2)ccc1OC(=O)[C@H](Cc1ccccc1)NC(=O)[C@@H](N)Cc1c[nH]c2ccccc12 | 0.019 µM
COc1cc(/C=C/C(=O)CC(=O)/C=C/c2ccc(OCCOC(=O)CCC(NC(=O)c3ccc(NCc4cnc5nc(N)[nH]c(=O)c5n4)cc3)C(=O)O)c(OC)c2)ccc1O (stereo unspecified) | > 0.119 µM
COc1cc(/C=C/C(=O)CC(=O)/C=C/c2ccc(OC(=O)CCC(NC(=O)c3ccc(NCc4cnc5nc(N)[nH]c(=O)c5n4)cc3)C(=O)O)c(OC)c2)ccc1OC(=O)CCC(NC(=O)c1ccc(NCc2cnc3nc(N)[nH]c(=O)c3n2)cc1)C(=O)O (stereo unspecified) | > 0.082 µM

Form field CC50, entry COc1cc(/C=C/C(=O)CC(=O)/C=C/c2ccc(O)c(OC)c2)ccc1O : > 0.002 µM

Source: ChEMBL document CHEMBL1154855
